test system: Vero E6 infected with SARS-CoV-2; test: SARS-CoV-2 infection rate relative to infected DMSO; higher = more infection, active = 60 or less; settings: 24 h
Allowed answers: active, inactive

Please review the entries below; each comes with its answer.
[
  {
    "Compound": "O=S(=O)(O)c1cc(I)c(O)c2ncccc12 [chiniofon] (10 µM)",
    "Tgt": "Vero E6 infected with SARS-CoV-2",
    "Class name": "inactive"
  },
  {
    "Compound": "CCNC1(C(N)=O)CCN(c2ncnc3c2nc(-c2ccccc2Cl)n3-c2ccc(Cl)cc2)CC1 (10 µM)",
    "Tgt": "Vero E6 infected with SARS-CoV-2",
    "Class name": "inactive"
  },
  {
    "Compound": "N[C@H]1C(O)O[C@H](CO)[C@@H](O)[C@@H]1O (mixture of isomers) [glucosamine] (10 µM)",
    "Tgt": "Vero E6 infected with SARS-CoV-2",
    "Class name": "inactive"
  },
  {
    "Compound": "O=S(=O)(O)c1ccc2[nH]c(-c3ccccc3)nc2c1 [phenylbenzimidazole-sulfonic-acid] (10 µM)",
    "Tgt": "Vero E6 infected with SARS-CoV-2",
    "Class name": "inactive"
  },
  {
    "Compound": "CC(=O)N[C@@H](CCC(N)=O)C(=O)O [aceglutamide] (10 µM)",
    "Tgt": "Vero E6 infected with SARS-CoV-2",
    "Class name": "inactive"
  }
]

stdin: Recorded test outcome, item Cc1cc(SCc2sc(-c3ccc(C(F)(F)F)cc3)nc2C)ccc1OCC(=O)O (10 µM)
stdout: inactive

stdin: Recorded test outcome, item Cc1cc(-c2ccc(CC(=O)Nc3ccc(-c4cccnc4)cc3)cc2)ccn1 (10 µM)
stdout: inactive

stdin: Recorded test outcome, item CC(=O)O[C@]1(C(C)=O)CC[C@H]2[C@@H]3C=C(C)C4=CC(=O)CC[C@@H]4[C@H]3CC[C@@]21C [nomegestrol-acetate] (10 µM)
stdout: inactive

stdin: Recorded test outcome, item c1ccc2c(c1)CN1CCCC1=N2 [desoxypeganine] (10 µM)
stdout: inactive

stdin: Recorded test outcome, item COC(=O)[C@H](NC(=O)c1cc(-c2ccccc2)nc2ccccc12)c1ccccc1 (10 µM)
stdout: inactive

stdin: Recorded test outcome, item CCCN(CCC)C(=O)C1=Cc2ccc(-c3ccc(C(=O)N4CCCC4)cc3)cc2N=C(N)C1 [motolimod] (10 µM)
stdout: inactive

stdin: Recorded test outcome, item CN1CCN(CCOc2cc(OC3CCOCC3)c3c(Nc4c(Cl)ccc5c4OCO5)ncnc3c2)CC1 [saracatinib] (10 µM)
stdout: inactive

---

test system: Vero E6 infected with SARS-CoV-2; experiment: inhibition of SARS-CoV-2 cytopathic effect; higher = more antiviral protection, active = above 15; settings: 100 nM; 48 h
Exercise: for every item that follows, state its recorded inhibition of SARS-CoV-2 cytopathic effect.
Numbers only, in %.

Worked set:
[
  {
    "Molecule": "OC[C@@H](O)[C@@H](O)CO",
    "Tgt": "Vero E6 infected with SARS-CoV-2",
    "Measurement": -2.74
  },
  {
    "Molecule": "CC(=O)Oc1ccccc1C(=O)Oc1ccccc1C(=O)O",
    "Tgt": "Vero E6 infected with SARS-CoV-2",
    "Measurement": 2.44
  },
  {
    "Molecule": "Cc1c(N2C(=O)[C@@H]3[C@H](O)CCN3C2=O)ccc(C#N)c1Cl",
    "Tgt": "Vero E6 infected with SARS-CoV-2",
    "Measurement": 0.87
  },
  {
    "Molecule": "CCCCNC(=O)[C@@H]1Cc2ccccc2N1C(=O)[C@@H](N)CC [butabindide]",
    "Tgt": "Vero E6 infected with SARS-CoV-2",
    "Measurement": -3.07
  },
  {
    "Molecule": "O=C1NC(c2ccccc2)(c2ccccc2)C(=O)N1COP(=O)(O)O",
    "Tgt": "Vero E6 infected with SARS-CoV-2",
    "Measurement": 13.5
  },
  {
    "Molecule": "Cc1cc(Cn2cnc3c2C[C@@H](C(=O)O)N(C(=O)C(c2ccccc2)c2ccccc2)C3)ccc1N(C)C",
    "Tgt": "Vero E6 infected with SARS-CoV-2",
    "Measurement": -3.61
  },
  {
    "Molecule": "Cc1ccc(S(=O)(=O)NC(=O)NN2CC3CCCC3C2)cc1 (centres undefined) [gliclazide]",
    "Tgt": "Vero E6 infected with SARS-CoV-2",
    "Measurement": 1.12
  },
  {
    "Molecule": "C=CC[N@@+]12CC[C@@]34c5ccccc5N5/C=C6/[C@H]7C[C@H]8[C@@]9(CC[N@@+]8(CC=C)C/C7=C/CO)c7ccccc7N(/C=C(/[C@@H](C[C@@H]31)/C(=C\\CO)C2)[C@H]54)[C@@H]69",
    "Tgt": "Vero E6 infected with SARS-CoV-2",
    "Measurement": -0.24
  }
]

Batch of 7 molecules: report inhibition of SARS-CoV-2 cytopathic effect for each.
1. C=C1C(=O)O[C@@H]2C[C@@]3(C)CCC[C@H](C)C3=C[C@H]12
2. CC(C)(C)C(=O)C(Oc1ccc(Cl)cc1)n1ccnc1 (centres undefined)
3. O=C1c2ccccc2-c2c(NCCc3ccccc3)c(=O)[nH]c3cccc1c23
4. OC[C@H]1NCC[C@@H](O)[C@@H]1O
5. CC(=O)NCCCOc1ccc(C(=O)N2CCC(N3C(=O)CCc4ccccc43)CC2)cc1
6. O=C(O)C(O)C(O)C(=O)O (centres undefined)
7. Cc1cccc(C)c1NC(=O)CN1CCCC1=O

stdout:
[-2.01, -1.59, 0.01, 1.02, 0.95, -5.86, -2.77]

Batch of 4 molecules: report inhibition of SARS-CoV-2 cytopathic effect for each.
1. O=[N+]([O-])c1ncc[nH]1
2. COc1cc2ncnc(Nc3cccc(Cl)c3F)c2cc1OC(=O)N1CCN(C)C[C@H]1C
3. O=C(O)c1ccccc1C(=O)Nc1ccc(-c2ccccc2)cc1
4. Cc1cccn2c(=O)c(-c3nnn[nH]3)cnc12

stdout:
1: 0.86; 2: -1.03; 3: 0.87; 4: 0.12

---

tested on: Vero E6 infected with SARS-CoV-2; assay: inhibition of SARS-CoV-2 cytopathic effect; higher = more antiviral protection, active = above 15; details: 1 nM; 48 h
Exercise: for every item that follows, state its recorded inhibition of SARS-CoV-2 cytopathic effect.
One number for each entry, in %.

[
  {
    "Compound": "C#Cc1cncc([C@@H]2CCCN2C)c1 [altinicline]",
    "Units symbol": "%",
    "Measurement": -3.46
  },
  {
    "Compound": "COC(=O)C1=C(C)NC(C)=C(C(=O)OCCN2CCN(C(c3ccccc3)c3ccccc3)CC2)C1c1cccc([N+](=O)[O-])c1 (centres undefined) [manidipine]",
    "Units symbol": "%",
    "Measurement": 1.55
  },
  {
    "Compound": "CCC/C=C1\\OC(=O)C2=C1CCC=C2 [ligustilide]",
    "Units symbol": "%",
    "Measurement": 8.3
  }
]

Batch of 2 compounds: report inhibition of SARS-CoV-2 cytopathic effect for each.
1. CC(C)(CO)CCCCCCC(C)(C)CO [gemcadiol]
2. CCCOC(C(=O)OC1CCN(C)CC1)(c1ccccc1)c1ccccc1 [propiverine]

stdout:
[-2.86, 0.57]

Batch of 2 compounds: report inhibition of SARS-CoV-2 cytopathic effect for each.
1. COc1cc(OC)nc(O[C@H](C(=O)O)C(OC)(c2ccccc2)c2ccccc2)n1 [darusentan]
2. C[C@@H](O)[C@H]1C(=O)N2C(C(=O)[O-])=C(SC3Cn4cnc[n+]4C3)[C@H](C)[C@H]12 (some centres undefined) [biapenem]

stdout:
0.26
-2.15

Batch of 2 compounds: report inhibition of SARS-CoV-2 cytopathic effect for each.
1. CC[C@]12CCCN3CCc4c(n(c5ccccc45)[C@@](O)(C(=O)OC)C1)[C@@H]32 [vincamine]
2. COc1cc(OC)c(/C=C2/C(=O)Nc3ccccc32)c(OC)c1

stdout:
1: 0.28; 2: 2.03

---

Exercise: for every item that follows, state its recorded inhibition of SARS-CoV-2 cytopathic effect.
tested on: Vero E6 infected with SARS-CoV-2; assay: inhibition of SARS-CoV-2 cytopathic effect; higher = more antiviral protection, active = above 15; conditions: 833.33 nM; 48 h
Answers are plain numbers, in %.

[
  {
    "Compound": "O=C(O)c1cn(-c2ccc(F)cc2)c2cc(N3CCNCC3)c(F)cc2c1=O [sarafloxacin]",
    "Measurement": -5.86
  },
  {
    "Compound": "CCCCN(CCCC)CC(O)c1cc(Cl)cc2c1-c1ccc(Cl)cc1/C2=C/c1ccc(Cl)cc1 (centres undefined) [lumefantrine]",
    "Measurement": 0.99
  },
  {
    "Compound": "COc1ccc(-n2[nH]c3c4c(ncc3c2=O)CCCCC4)cc1",
    "Measurement": 1.15
  },
  {
    "Compound": "CCN1CCC[C@H]1CNC(=O)c1c(OC)ccc(Br)c1OC [remoxipride]",
    "Measurement": 0.51
  },
  {
    "Compound": "COc1cccc(OC)c1C(=O)N[C@@H]1C(=O)N2[C@@H]1SC(C)(C)[C@@H]2C(=O)O [methicillin]",
    "Measurement": -0.54
  },
  {
    "Compound": "CCCCCCCCC(=O)N[C@H](CN1CCCC1)[C@H](O)c1ccc2c(c1)OCCO2",
    "Measurement": 1.06
  }
]

Batch of 2 compounds: report inhibition of SARS-CoV-2 cytopathic effect for each.
1. CCN1CCN(c2cc3c(cc2F)c(=O)c(C(=O)O)cn3C2CC2)CC1 [enrofloxacin]
2. Cc1ncc([N+](=O)[O-])n1CC(O)CN1CCOCC1 (centres undefined) [morinidazole]

stdout:
1. 2.88
2. -1.22

Batch of 6 compounds: report inhibition of SARS-CoV-2 cytopathic effect for each.
1. CC(C)n1nc(-c2cc3cc(O)ccc3[nH]2)c2c(N)ncnc21
2. CN1CCC(COc2cnc(-c3cccc(Cn4nc(-c5cccc(C#N)c5)ccc4=O)c3)nc2)CC1
3. CC(=O)Nc1ccc(C(=O)O)cc1 [acedoben]
4. C[C@H](N/C(=N/C#N)Nc1cccc2ncccc12)c1ccccc1
5. CC(C)n1c(/C=C/[C@@H](O)C[C@@H](O)CC(=O)O)c(-c2ccc(F)cc2)c2ccccc21 [fluvastatin]
6. COc1ccc(CC2NCCc3c2[nH]c2ccc(C)cc32)c(Cl)c1OC (centres undefined)

stdout:
1. 2.07
2. 2.63
3. 0.73
4. 1.32
5. -1.33
6. -1.77

Batch of 5 compounds: report inhibition of SARS-CoV-2 cytopathic effect for each.
1. CC(C)CCNc1ncccc1C(=O)N1CCN(Cc2ccccc2)CC1
2. N=C(N)NC(=N)Nc1cccc(Cl)c1 [m-chlorophenylbiguanide]
3. COc1cc(Br)c(S(=O)(=O)Nc2ccc(C(F)(F)F)c(O[C@@H]3CCN(C)C3)c2)cc1OC
4. O=C(CN1CCN(Cc2ccc3c(c2)OCO3)CC1)N1c2ccccc2Sc2ccccc21 [fenoverine]
5. CCc1ccc(/C=C/C(=O)Nc2ccc(C(C)=O)cc2)o1 [heclin]

stdout:
1. 0.33
2. -7.74
3. -0.46
4. -0.47
5. -6.86
